Consider the following sequences; for each one, report its protein stability index.
experiment: protein stability index of a GFP-peptide fusion (yeast GPS) (PSI 1-4); higher = more stable; sorted into four equal gates, so the index is relative within each strain; conditions: ubr1∆
Answer field: number only, no words.

Query block: Endpoint output: protein stability index of LLLKKIIKDYVLDIVPG [SRB4] . Value?
Result block: 2.71

Query block: For the sequence shown here, IERLTKRQFNNSYWLII [ITC1] , give the reported protein stability index.
Result block: 2.13

Query block: I'd like to know its protein stability index. The sequence in question is ITSWYENHNKGKLWKDV [QCR9]
Result block: 3.21

Query block: Report protein stability index for TARINNRRLFKKCIDFF [RRI2] please.
Result block: 2.18

Query block: Recorded protein stability index for TRVRLPSGAKKVISSDA [RPL2A] , please?
Result block: 3.26

Query block: Consider the sequence NEPLSEIEIEGVMSLLQ [YAR002W/NUP60] and give its measured protein stability index.
Result block: 3.19

Query block: Need protein stability index, item REVENSVSLLNSDIANL [SMC1]
Result block: 2.86

Query block: // lookup protein stability index for GLHSSEYKLRSLTLSFI [ECM29]
Result block: 2.46

Query block: What value of protein stability index has been recorded for this entry: GWFHSHPGYDCWLSNID [RRI1]
Result block: 2.81

Query block: If you can, please state the reported protein stability index value of DFTLIPRMASVFENYVK [CDC53] .
Result block: 3.13

Query block: protein stability index lookup needed for EAIRDPKNSSSPVQIAF [SSN8] , thanks.
Result block: 2.98

Query block: Entry under review: MQQAQFQAQQAQQAQQA [SNF2] . Reported protein stability index?
Result block: 2.53

Query block: Name the reported protein stability index value associated with the sequence RRDDEVLVVRGSKKGQE [RPL26A]
Result block: 3.57

Query block: What does the data say about its protein stability index? Entry: GFIFTSMILEAISTDKI [RRI2]
Result block: 1.51

----------
experiment: protein stability index of a GFP-peptide fusion (yeast GPS) (PSI 1-4); higher = more stable; sorted into four equal gates, so the index is relative within each strain; settings: ubr1∆
Parameter: protein stability index
Give only the figure.

Query block: Find the recorded protein stability index belonging to PVGSYEREQCRAGGAAA [PRE7] and report it.
Result block: 2.78

Query block: Give the measured protein stability index of FLTNYNVRMDTMANILY [RPB2] .
Result block: 3.48

Query block: Looking for the measured protein stability index of GSNKAQISIIDIWSISK [YML031W/NDC1] , can you help?
Result block: 2.97

Query block: So what's the measured protein stability index for this one? KPTDATGNTTSKSAFSF [YOR098C/NUP1]
Result block: 2.46

Query block: Quick one: protein stability index of GQRTAYHSKRDASTPLR [RPB2] ?
Result block: 3.25

Query block: Given SSTDFSTCIVSLIRNNL [ECM29] , state its recorded protein stability index.
Result block: 2.88

Query block: // returns reported protein stability index for input ALHYLVPFIIAAMVIMH [COB]
Result block: 1.4

Query block: Given the sequence ENENILIKAKNFLVFQG [SMC1] , what is its reported protein stability index?
Result block: 1.17

Query block: # input sequence: LQRHLSLGIRPCLRKYE [RRP43] ; wanted: its protein stability index
Result block: 3.08

Query block: Find the recorded protein stability index belonging to TKPSLRKASCIWLLSYI [ECM29] and report it.
Result block: 1.86

Query block: // lookup protein stability index for TKFLAKNGVIPEESKGS [SWP82]
Result block: 3.45

Query block: Can you look up the measured protein stability index of YEYGAVSVLLISKDCSA [BRR2] for me?
Result block: 1.81

Query block: I am curious: what protein stability index value has been reported for FLLSAMTMASKSLEVVN [NSL1] ?
Result block: 1.61

Query block: Could you share which protein stability index value was measured for TNLKMKRKWSYVLYAKI [RRP43] ?
Result block: 2.09
